Overview of reported CC50 across a group of compounds:
- test-method-notes: Cytotoxicity, ATPlite Luminescence Assay
- Assay type: cell-based, human
- condition-details: human, HepG2 or HepG2.117 cells, 3-days incubation unless marked with *, ATPlite viability
measure: CC50

CNC(=O)[C@@H]1CN([C@@H](C)c2ccc(OC(F)F)cc2)C(=O)c2c3c(nn21)C[C@@H](C)N(C(=O)c1ccc(Cl)c(C(F)(F)F)n1)C3 [Compound 45] = 49.8 µM
CNC(=O)[C@@H]1CN(C(C)c2ccnc(C(F)(F)F)c2)C(=O)c2c3c(nn21)C[C@@H](C)N(C(=O)c1ccc(Cl)c(Cl)c1)C3 (single isomer, unassigned) [Compound 9B] = > 50 µM
CNC(=O)[C@@H]1CN(C(C)c2ccn(CC(F)(F)F)n2)C(=O)c2c3c(nn21)C[C@@H](C)N(C(=O)c1ccc(Cl)c(C(F)(F)F)c1)C3 (single isomer, unassigned) [Compound 14B] = > 50 µM
CC(c1ccc(C(F)(F)F)nc1)N1C[C@@H](C(=O)N(C)C)n2nc3c(c2C1=O)CN(C(=O)c1ccc(Cl)c(Cl)c1)[C@H](C)C3 (single isomer, unassigned) [Compound 8B] = > 50 µM
CNC(=O)[C@@H]1CN(C(C)c2ccc(-n3cncn3)cn2)C(=O)c2c3c(nn21)C[C@@H](C)N(C(=O)c1ccc(Cl)c(Cl)c1)C3 (single isomer, unassigned) [Compound 40A] = > 50 µM
CNC(=O)[C@@H]1CN(Cc2ccc(OC(F)F)cc2)C(=O)c2c3c(nn21)C[C@@H](C)N(C(=O)c1ccc(Cl)c(Cl)c1)C3 [Compound 17] = 39.1 µM
CNC(=O)[C@@H]1CN(C(C)c2cc(F)ccn2)C(=O)c2c3c(nn21)C[C@@H](C)N(C(=O)c1ccc(Cl)c(Cl)c1)C3 (single isomer, unassigned) [Compound 42A] = > 50 µM
CNC(=O)[C@@H]1CN(C(C)c2ccc(-c3c(C)noc3C)nc2)C(=O)c2c3c(nn21)C[C@@H](C)N(C(=O)c1ccc(Cl)c(Cl)c1)C3 (single isomer, unassigned) [Compound 35A] = > 50 µM
CC(c1ccc(OC(F)F)nc1)N1C[C@@H](C(N)=O)n2nc3c(c2C1=O)CN(C(=O)c1ccc(Cl)c(Cl)c1)[C@H](C)C3 (single isomer, unassigned) [Compound 12A] = 24.4 µM
CNC(=O)[C@@H]1CN(C(C)c2ccc(S(C)(=O)=O)cc2)C(=O)c2c3c(nn21)C[C@@H](C)N(C(=O)c1ccc(Cl)c(C(F)(F)F)c1)C3 (single isomer, unassigned) [Compound 19A] = > 50 µM

###

- test-method-notes: Cytotoxicity, ATPlite Luminescence Assay
- Type: cell-based, human
- condition-details: human, HepG2 or HepG2.117 cells, 3-days incubation unless marked with *, ATPlite viability
measure: CC50

CNC(=O)[C@@H]1CN([C@H](C)c2ccc(C(F)(F)F)nc2)C(=O)c2c3c(nn21)C[C@@H](C)N(C(=O)c1ccc(Cl)c(C(F)(F)F)c1)C3 [Compound 15A] = > 50 µM
CNC(=O)[C@@H]1CN(C(C)c2ccc(C(F)(F)F)nc2)C(=O)c2c3c(nn21)C[C@@H](C)N(C(=O)c1ccc(Br)c(Cl)c1)C3 (single isomer, unassigned) [Compound 10B] = 46.8 µM
CNC(=O)[C@@H]1CN([C@@H](C)c2ccc(C(F)(F)F)nc2)C(=O)c2c3c(nn21)C[C@@H](C)N(C(=O)c1ccc(Cl)c(C(F)(F)F)c1)C3 [Compound 15B] = 29.8 µM
C[C@@H]1Cc2nn3c(c2CN1C(=O)c1ccc(Cl)c(Cl)c1)C(=O)N([C@@H](C)c1ccc(OC(F)F)cc1)CC3 [Ref 2, reference compound] = 19.8 µM
CNC(=O)[C@@H]1CN(C(C)c2ccc(-n3cncn3)cc2)C(=O)c2c3c(nn21)C[C@@H](C)N(C(=O)c1ccc(Cl)c(Cl)c1)C3 (single isomer, unassigned) = > 50 µM
CNC(=O)[C@@H]1CN([C@H](C)c2ccc(S(C)(=O)=O)cc2)C(=O)c2c3c(nn21)C[C@@H](C)N(C(=O)c1ccc(Cl)c(Cl)c1)C3 [Compound 18A] = > 50 µM
CNC(=O)[C@@H]1CN(Cc2ccc(S(=O)(=O)C3CC3)cc2)C(=O)c2c3c(nn21)C[C@@H](C)N(C(=O)c1ccc(Cl)c(C(F)(F)F)c1)C3 = > 50 µM
C[C@@H]1Cc2nn3c(c2CN1C(=O)c1ccc(Cl)c(C#N)c1)C(=O)N([C@@H](C)c1ccc(OC(F)F)cc1)C[C@H]3C(=O)N(C)C [Compound 27B] = > 50 µM
CNC(=O)[C@@H]1CN(C(C)c2ccc(C(C)(C)O)cn2)C(=O)c2c3c(nn21)C[C@@H](C)N(C(=O)c1ccc(Cl)c(Cl)c1)C3 (single isomer, unassigned) [Compound 39A] = > 50 µM
C[C@@H]1Cc2nn3c(c2CN1C(=O)c1ccc(Cl)c(Cl)c1)C(=O)N([C@H](C)c1ccc(OC(F)F)cc1)CC3 [Ref 1, reference compound] = > 50 µM
CC(c1ccc(OC(F)F)cc1)N1C[C@@H](C(=O)NC2CC2)n2nc3c(c2C1=O)CN(C(=O)c1ccc(Cl)c(C#N)c1)[C@H](C)C3 (single isomer, unassigned) [Compound 26A] = 29.7 µM
